- TARGET_UNDER_TEST: Tyrosyl-DNA phosphodiesterase 1 (Homo sapiens, UniProt Q9NUW8)
- Sequence (Q9NUW8 whole entry): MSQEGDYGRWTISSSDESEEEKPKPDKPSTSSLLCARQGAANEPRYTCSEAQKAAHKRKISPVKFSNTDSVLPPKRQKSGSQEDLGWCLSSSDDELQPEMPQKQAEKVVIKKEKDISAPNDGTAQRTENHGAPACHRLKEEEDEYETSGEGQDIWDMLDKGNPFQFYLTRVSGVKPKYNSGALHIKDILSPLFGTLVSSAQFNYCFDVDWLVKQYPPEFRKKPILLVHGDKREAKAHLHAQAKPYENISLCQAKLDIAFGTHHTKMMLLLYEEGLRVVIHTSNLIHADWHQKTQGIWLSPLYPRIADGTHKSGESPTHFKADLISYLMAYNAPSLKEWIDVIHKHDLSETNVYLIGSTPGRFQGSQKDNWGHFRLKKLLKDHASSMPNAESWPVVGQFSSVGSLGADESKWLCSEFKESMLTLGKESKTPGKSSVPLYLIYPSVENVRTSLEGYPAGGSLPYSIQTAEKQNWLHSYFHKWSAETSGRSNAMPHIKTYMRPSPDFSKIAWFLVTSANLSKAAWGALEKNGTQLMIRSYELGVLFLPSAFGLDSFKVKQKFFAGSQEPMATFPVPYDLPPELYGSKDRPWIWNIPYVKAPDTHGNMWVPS
- TEST_SUMMARY: Inhibition of recombinant TDP1 (unknown origin) expressed in Escherichia coli using 5'-FAM/3'-BHQ1 tagged oligonucleotide as substrate by fluorescence assay
READOUT_KIND: pIC50
Numbers only, as −log10 of the molar value.

For orientation, consider the following solved cases.
1. CC(=O)C1=C(O)C=C2Oc3c(-c4csc(N/N=C\C5=C[C@@H]6C[C@H](C5)C6(C)C)n4)c(O)c(C)c(O)c3[C@@]2(C)C1=O :: 7.35
2. CC(=O)C1=C(O)C=C2Oc3c(-c4csc(N/N=C5/C[C@H]6CC[C@]5(C)C6(C)C)n4)c(O)c(C)c(O)c3[C@@]2(C)C1=O :: 7.51
3. CCCCCCCC=NNc1nc(-c2c(O)c(C)c(O)c3c2OC2=CC(O)=C(C(C)=O)C(=O)[C@@]23C)cs1 :: 7.06

Now take the following molecule into account.
Q: Lab note: Tyrosyl-DNA phosphodiesterase 1 (Homo sapiens, UniProt Q9NUW8) assay, enter pIC50 for CC(=O)C1=C(O)C=C2Oc3c(-c4csc(NN=CCC(C)CCCC(C)(C)O)n4)c(O)c(C)c(O)c3[C@@]2(C)C1=O (some centres undefined) here
A: 6.86
